In this section, each of the molecules is paired with its reported half-life.
Test: Pharmacokinetic assay in mice, per oral administration
Format: in vivo
Settings: male, mouse, plasma; PO 30 mg/kg, ICR mice, original compound (ester) analyzed
Measurement name: half-life (min)

| Molecular string | Measurement name | Readout number |
| --- | --- | --- |
| COC(=O)[C@@H]1CCCCN1Cc1cnc(C(=O)Nc2cccc(-c3cccc(NC(=O)c4cc(C)c(CN5CCCC[C@H]5C(=O)OC)cn4)c3C)c2C)cc1C | half-life | 216 |
| COC(=O)[C@@H]1CCCCN1Cc1cnc(C(=O)Nc2cccc(-c3cccc(NC(=O)c4cc(OC)c(CN5CCCC[C@H]5C(=O)OC)cn4)c3C)c2C)cc1OC | half-life | 222 |
